# subject of test: Human recombinant PDE2A (hPDE2A) (Homo sapiens)
# Construct: made in house; host or cells: Sf9 insect cells (baculovirus)
# Sequence (O00408 whole entry): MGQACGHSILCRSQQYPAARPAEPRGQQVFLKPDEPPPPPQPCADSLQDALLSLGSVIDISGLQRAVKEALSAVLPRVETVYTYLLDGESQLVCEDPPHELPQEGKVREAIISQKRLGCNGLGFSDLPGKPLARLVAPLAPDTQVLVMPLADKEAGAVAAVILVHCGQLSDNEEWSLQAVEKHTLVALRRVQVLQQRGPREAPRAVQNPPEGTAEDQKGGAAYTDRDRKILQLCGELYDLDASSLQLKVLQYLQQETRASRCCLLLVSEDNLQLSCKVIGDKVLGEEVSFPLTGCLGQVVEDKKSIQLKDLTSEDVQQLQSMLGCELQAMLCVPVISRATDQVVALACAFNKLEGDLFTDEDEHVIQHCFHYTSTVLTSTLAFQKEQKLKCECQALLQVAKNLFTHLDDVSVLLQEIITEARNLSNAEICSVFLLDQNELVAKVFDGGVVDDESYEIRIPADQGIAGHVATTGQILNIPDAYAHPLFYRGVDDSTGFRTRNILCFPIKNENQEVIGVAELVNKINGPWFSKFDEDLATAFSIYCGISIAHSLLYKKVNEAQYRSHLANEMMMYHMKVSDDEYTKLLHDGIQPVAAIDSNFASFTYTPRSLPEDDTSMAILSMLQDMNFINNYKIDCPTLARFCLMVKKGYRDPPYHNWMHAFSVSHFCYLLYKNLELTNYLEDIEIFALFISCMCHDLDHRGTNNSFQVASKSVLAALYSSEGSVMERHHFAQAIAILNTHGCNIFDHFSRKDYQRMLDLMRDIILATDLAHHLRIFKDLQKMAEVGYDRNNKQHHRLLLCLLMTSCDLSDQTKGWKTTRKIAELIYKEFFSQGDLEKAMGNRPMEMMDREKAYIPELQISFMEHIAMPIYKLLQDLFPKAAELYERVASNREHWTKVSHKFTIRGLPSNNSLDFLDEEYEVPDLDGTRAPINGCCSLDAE
# protocol description: In vitro assay PDE2A (SPA, 3H-cGMP)
# Type: biochemical
# test settings: read-out: pIC50 PDE2 (converted)
experimental readout: IC50 (nM)

Take a look at these entries with their results.
| molecule | u | IC50 |
| --- | --- | --- |
| CCNC(=O)c1ccc2c(c1)nc(C)c1nnc(-c3cncc(OC)c3)n12 [Compound B-172] | nM | 126 |
| Cc1nc2ccc(NCCc3ccccn3)cc2n2c(-c3ccccc3Cl)nnc12 [Compound B-60] | nM | 5.01 |
| Cc1nc2ccc(Br)cc2n2c(-c3cc(OC(C)C)ccc3Cl)nnc12 [Compound B-100] | nM | 14.8 |
| Cc1nc2ccc(C(=O)OCCc3ccccc3)cc2n2c(-c3ccccc3)nnc12 [Compound B-122] | nM | 27.5 |
| Cc1nc2ccc(C(=O)NCc3cccc(F)n3)cc2n2c(-c3ccccc3Cl)nnc12 [Compound B-32] | nM | 0.251 |

a = Cc1nc2ccc(COc3ccccc3)cc2n2c(-c3ccccc3)nnc12 [Compound B-98]
b = Cc1nc2ccc(CN3CCN(C)CC3)cc2n2c(-c3ccccc3Cl)nnc12 [Compound B-73]
Request: Input pair: a , b . Output: entry with lower IC50. Answer = label.
Response: b
